Recorded values, source patent US20200247894A1.

# assayed.system: T1, Human IL2Rγ extracellular domain expressed with a C-terminal mouse IgG2a Fc tag (human)
# T1 construct: whole entry is the Fc-fused construct; also called hIL-2Rg-mFc
# T1 chain: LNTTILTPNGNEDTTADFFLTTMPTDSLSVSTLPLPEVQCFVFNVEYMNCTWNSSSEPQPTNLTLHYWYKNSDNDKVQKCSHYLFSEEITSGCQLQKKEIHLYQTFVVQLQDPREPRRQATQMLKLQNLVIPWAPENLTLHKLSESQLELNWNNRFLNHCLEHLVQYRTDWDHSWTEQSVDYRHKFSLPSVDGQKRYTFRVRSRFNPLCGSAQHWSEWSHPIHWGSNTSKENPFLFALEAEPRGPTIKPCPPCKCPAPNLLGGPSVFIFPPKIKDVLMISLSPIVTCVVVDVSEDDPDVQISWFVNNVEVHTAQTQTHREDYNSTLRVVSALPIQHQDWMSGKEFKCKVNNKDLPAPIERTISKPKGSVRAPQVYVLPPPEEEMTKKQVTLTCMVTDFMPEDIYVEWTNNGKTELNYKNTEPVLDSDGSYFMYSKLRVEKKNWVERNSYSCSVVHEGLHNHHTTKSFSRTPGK
# protocol.description: SPR Biacore 4000, anti-hFc-captured mAb, 37 C
result.type: kon (M⁻¹ s⁻¹)
Give the value in M⁻¹ s⁻¹ but do not write M⁻¹ s⁻¹ after it.

binder	kon / M⁻¹ s⁻¹
H4H12884P (antibody, human IgG4 S228P, kappa, V domains shown, fully human anti-IL2Rgamma mAb, human IgG4 Fc) VH: QVQLQESGPGLVKPSQTLSLTCTVSGGSISSGGYYWSWIRQHPGKGLEWIGFIYYSGKTYYNPSLKSRLTISVDTSKSQFSLKLRSVTAADTAVYYCARLGYTNSAGWFDPWGQGTLVTVSS VL: DIQMTQSPSSLSASVGDRVTITCRASQSISSYLNWYQQKPGKAPNLLIYAASSLQSGVPSRFSGSGSGTDFTLTISSLQPEDLATYYCQQSYTTPFTFGPGTKVDIKR	486000
H4H12871P (antibody, human IgG4 S228P, kappa, V domains shown, fully human anti-IL2Rgamma mAb, human IgG4 Fc; also called REGN9434) VH: QVQLQESGPGLVKPSQTLSLTCTVSGGSITSGGYYWSWIRQYPGQGLEWIGYIYYSGKTYYNPSFTSRITISVDTSKKQFSLKMSSVTAADTAVYYCARAGFTSSNGWFDPWGQGTLVTVSS VL: DIQMTQSPSSLSASVGDRVTITCRASQNIRSYLNWYQQKPGKAPKLLIYSASSLQSGVPSRFSGSGSGTDFTLTISSLQPEDFPTYYCQQTYSSPWTFGPGTKVEIKR	473000
H4H12886P (antibody, human IgG4 S228P, kappa, V domains shown, fully human anti-IL2Rgamma mAb, human IgG4 Fc) VH: EVQLVESGGGLVKPGGSLRLSCAASGFTFSTAWMSWVRQSPGRGLEWVGRMKSKTDGGTTFYAAPVKGRFTISRDDSKNTLYLQMNSLKTEDTAVYYCTTGLVPAFYKYYGVDVWGQGTTVTVSS VL: DIQMTQSPSSLSASVGDRITITCQASQDITNYLNWYQQKPGKAPNLLIYDASNLVTGVPSRFSGSGSGTDFTFTILSLQPEDIATYYCQQYDSLLTFGPGTKVDIKR	7080

Q: Would you kindly share the measured kon for H4H12874P (antibody, human IgG4 S228P, kappa, V domains shown, fully human anti-IL2Rgamma mAb, human IgG4 Fc) VH: QVQLVESGGGVVQPGRSLRLSCAASGFNFRNFGMHWVRQAPGKGLEWVAGILYDGSSKYYADSVKDRFTISRDNSKNTLFLQMNSLRAEDTAMYYCAKEEDTAMVPFDSWGPGTLVTVSS VL: DIQLTQSPSFLSASVGDRVTITCWASQGISSYLAWYQQKPGKAPTLLIYAASTLQSGVPSRFSGSGSGTEFTLTISSLQPEDFASYYCQQLKSYPLTFGGGTKVEIKR ?
Ans: 33000

Q: Would you kindly share the measured kon for H4H13538P (antibody, human IgG4 S228P, kappa, V domains shown, fully human anti-IL2Rgamma mAb, human IgG4 Fc) VH: EVQLVESGGGLVQPGGSLGLSCAASGFTFSNYAMSWVRQAPGKGLEWVSAVSGGGGGTYYADSVKGRFTISRDNSKNTVLLQMNSLRAEDTAVYYCARGRTGGLDYWGPGTLVTVSS VL: DVVMTQSPLSLPVIFGQPASISCRSSQSLVDSDGNTYLNWLQQRPGQSPRRLIYEVSNRDSGVPDRFSGSGSGTDFTLTISRVEAEDVGIYYCMQGTRWPPTFGGGTKVEIKR ?
Ans: 144000
